Biological target: T1, human GFRAL (human, UniProt Q6UXV0 19-394)
T1 sequence (looked up): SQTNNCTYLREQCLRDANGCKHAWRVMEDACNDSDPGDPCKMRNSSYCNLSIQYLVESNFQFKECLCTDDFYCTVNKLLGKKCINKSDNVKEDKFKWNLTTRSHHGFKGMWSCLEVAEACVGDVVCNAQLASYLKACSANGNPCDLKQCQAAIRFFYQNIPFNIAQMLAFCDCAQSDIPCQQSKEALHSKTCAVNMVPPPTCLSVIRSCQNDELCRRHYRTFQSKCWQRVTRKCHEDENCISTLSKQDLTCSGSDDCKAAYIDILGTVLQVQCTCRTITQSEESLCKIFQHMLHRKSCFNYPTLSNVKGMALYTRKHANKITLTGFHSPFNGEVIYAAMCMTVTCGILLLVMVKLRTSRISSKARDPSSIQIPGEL
Test: cell-based or functional assay
Overview of reported GDF15 activity (EC50, pM) across a group of binders:
Please give a number only; it is taken to be in pM.

Example binders with recorded GDF15 activity (EC50, pM):
Value lookup for GDF15 activity (EC50, pM); key = MLC091 (ligand, Moiety B (HOOC-(CH2)16-CO-gGlu-2XADO-EDA-CO-CH2) on 35C of Linker (66C of fusion polypeptide)) HGEGTFTSDVSSYLEEQAAKEFIAWLVRGGGGAQPGAQPGAQPGAQPGAQPGAQPGAQPGAQPGQCPGAQPGQEPGAQPGQEPGAQPGQEPGAQPGQEPGAQPGQEPGAQPARQGDHCPLGPGRCCRLHTVRASLEDLGWADWVLSPREVQVTMCIGACPSQFRAANLHAQIKTSLHRLKPDTVPAPCCVPASYNPMVLIQKTDTGVSLQTYDDLLAKDCHCI
34.9

Repeat with MLC087 (ligand, Moiety B (HOOC-(CH2)16-CO-gGlu-2XADO-EDA-CO-CH2) on 41C of Linker (72C of fusion polypeptide)) HGEGTFTSDVSSYLEEQAAKEFIAWLVRGGGGAQPGAQPGAQPGAQPGAQPGAQPGAQPGAQPGQEPGAQPCQEPGAQPGQEPGAQPGQEPGAQPGQEPGAQPGQEPGAQPARQGDHCPLGPGRCCRLHTVRASLEDLGWADWVLSPREVQVTMCIGACPSQFRAANLHAQIKTSLHRLKPDTVPAPCCVPASYNPMVLIQKTDTGVSLQTYDDLLAKDCHCI
23.8

What would you report for MLC017 (ligand, Moiety A (HOOC-(CH2)16-CO-gGlu-2XADO) on 55K of Linker (86K of fusion polypeptide)) HGEGTFTSDVSSYLEEQAAREFIAWLVRGGGGQEPGAQPGQEPGAQPGQEPGAQPGQEPGAQPGQEPGAQPGQEPGAQPGAQPGAKPGAQPGAQPGAQPGAQPGAQPGAQPARQGDHCPLGPGRCCRLHTVRASLEDLGWADWVLSPREVQVTMCIGACPSQFRAANLHAQIKTSLHRLRPDTVPAPCCVPASYNPMVLIQRTDTGVSLQTYDDLLARDCHCI ?
77.6

Param item: MLC081 (ligand, Moiety C (HOOC-(CH2)20-CO-gGlu-2XADO-EDA-CO-CH2) on 35C of Linker (66C of fusion polypeptide)) HGEGTFTSDVSSYLEEQAAKEFIAWLVRGGGGQEPGAQPGQEPGAQPGQEPGAQPGQEPGAQPGQCPGAQPGQEPGAQPGQEPGAQPGAQPGAQPGAQPGAQPGAQPGAQPARQGDHCPLGPGRCCRLHTVRASLEDLGWADWVLSPREVQVTMCIGACPSQFRAANLHAQIKTSLHRLKPDTVPAPCCVPASYNPMVLIQKTDTGVSLQTYDDLLAKDCHCI
69.8

Request: MLC030 (ligand, Moiety A (HOOC-(CH2)16-CO-gGlu-2XADO) on 15K of Linker (46K of fusion polypeptide)) HGEGTFTSDVSSYLEEQAAREFIAWLVRGGGGQEPGQEPGQEPGQKPGQEPGQEPGQEPGQEPGAQPGAQPGAQPGAQPGAQPGAQPGAQPGAQPGAQPGAQPGAQPGAQPARQGDHCPLGPGRCCRLHTVRASLEDLGWADWVLSPREVQVTMCIGACPSQFRAANLHAQIKTSLHRLRPDTVPAPCCVPASYNPMVLIQRTDTGVSLQTYDDLLARDCHCI
52.3

Continuing:
State the recorded GDF15 activity (EC50, pM) for this entry: MLC023 (ligand) HGEGTFTSDVSSYLEEQAAKEFIAWLVRGGGGQEPGQEPGQEPARQGDHCPLGPGRCCRLHTVRASLEDLGWADWVLSPREVQVTMCIGACPSQFRAANLHAQIKTSLHRLKPDTVPAPCCVPASYNPMVLIQKTDTGVSLQTYDDLLAKDCHCI
62.8

This collection of values is drawn from patent US20220017589A1.
